# System: male ICR mice
# Assay overview: Mouse toxicity test, intraperitoneal (Example 6)
# Assay context: male ICR mice, intraperitoneal, 14 days observation
Listing of recorded Approximate lethal dose by entry.

| Compound | Target | Approximate lethal dose |
| --- | --- | --- |
| CON=C1CN(c2nc3c(cc2F)c(=O)c(C(=O)O)cn3C2CC2)CC12CNC2 [Formate] | male ICR mice | 500 to 1000 mg/kg |
| CON=C1CN(c2nc3c(cc2F)c(=O)c(C(=O)O)cn3C2CC2)CC12CNC2 [Phosphate] | male ICR mice | 250 to 500 mg/kg |
| CON=C1CN(c2nc3c(cc2F)c(=O)c(C(=O)O)cn3C2CC2)CC12CNC2.Cl [Hydrochloride] | male ICR mice | 250 to 500 mg/kg |
| CON=C1CN(c2nc3c(cc2F)c(=O)c(C(=O)O)cn3C2CC2)CC12CNC2 [Methanesulfonate] | male ICR mice | 500 to 1000 mg/kg |

----------
# Assay overview: Solubility of various salt forms in various solvents at room temperature (Example 4A)
# Assay type: physicochemical
# Assay context: solvent of pH 4.0, aqueous buffer; pH 4.0, room temperature; read-out: Salt Form Solubility
Endpoint label: Solubility (µg/mL)

| Substance smiles | Readout unit | Obs value |
| --- | --- | --- |
| CON=C1CN(c2nc3c(cc2F)c(=O)c(C(=O)O)cn3C2CC2)CC12CNC2 | µg/mL | 6490 |

----------
# Assay overview: Solubility of various salt forms in various solvents at room temperature (Example 4A)
# Format: physicochemical
# Assay context: aqueous solution with a pH of 6.8, aqueous buffer; pH 6.8, room temperature; read-out: Salt Form Solubility
Endpoint label: Solubility (µg/mL)

| Substance smiles | Obs value |
| --- | --- |
| CON=C1CN(c2nc3c(cc2F)c(=O)c(C(=O)O)cn3C2CC2)CC12CNC2 | 38 |
